Please go through the items and note down their relative cell viability.
# Tested on: Hep3B
# ASSAY: relative cell viability (CellTiter-Glo), compound alone (fraction); higher = more viable cells (less growth inhibition)
# CONDITIONS_USED: cabozantinib 0 µM; 4 days
Whole data set: some 1,900 compounds, median “relative cell viability (CellTiter-Glo), compound alone” near 1, cut for the lowest 2% near 0.16. The full list was thinned out, with the lowest values kept by preference.
Response field accepts a number only; no unit should be typed.

GET /values?readout=relative cell viability&item= c1ccc(NCc2ccc(CNc3ccccn3)cc2)nc1
1.09

Lookup CC[C@@H](C)Nc1cc(C(=O)N[C@H]2C[C@H]3CC[C@@H](C2)N3c2ccc(C(=O)C3CC3)cn2)c(C)cc1C(N)=O
0.213

Lookup O=C(NNc1nc2cc(F)ccc2n2cccc12)c1cnccn1
0.383

Lookup O=[N+]([O-])c1ccc2c(c1)S(=O)(=O)C=C2 [Stattic]
1.03

Lookup CN1CCN(c2ccc3nc(-c4c(N)c5c(F)cccc5[nH]c4=O)[nH]c3c2)CC1 [Dovitinib (TKI-258) Dilactic Acid]
0.621

Lookup Cc1c(N(C)C)c(=O)n(-c2ccccc2)n1C [Amidopyrine]
1.07

Lookup Cn1cc(-c2ccc3c(c2)CCN3C(=O)Cc2cccc(C(F)(F)F)c2)c2c(N)ncnc21
1.34

Lookup Cc1ccc(C(=O)c2cc(O)c(O)c([N+](=O)[O-])c2)cc1 [Tolcapone]
1.05

Lookup c1cc(-c2cnn3cc(-c4ccc(N5CCNCC5)cc4)cnc23)c2cccnc2c1
0.142

Lookup COc1cc(-c2cc(-c3ccc(N4CCNCC4)cc3)cnc2C)cc(OC)c1OC
0.937

Lookup Clc1ccc(C2(c3ccc(-c4cn[nH]c4)cc3)CCNCC2)cc1
0.972

Lookup CC(C=CC(=O)NO)=CC(C)C(=O)c1ccc(N(C)C)cc1 (stereo not given) [Trichostatin A (TSA)]
0.131

Lookup Nc1ncnc2c1C(=O)N(c1ccc([C@H]3CC[C@H](CC(=O)O)CC3)cc1)CCO2
1.29

Lookup COc1ccc2c(Oc3ccc(NC(=O)c4c(C)n(CC(C)(C)O)n(-c5ccccc5)c4=O)nc3)ccnc2c1
1.16

Lookup COc1ccc(-c2cnc3c(-c4cccc5ncccc45)cnn3c2)cc1
1.31
